Measured Ki values are reported for all entries that follow.
biological target: human α2δ-1 subunit of Cav2.2 calcium channel (Homo sapiens (Human), UniProt P54289); test: Binding assay to human α2δ-1 subunit of Cav2.2 calcium channel ([3H]-Gabapentin); details: Table 1, human α2δ-1 enriched membranes, read-out: Ki (nM) alpha2delta Hum
Sequence (P54289 25-1103): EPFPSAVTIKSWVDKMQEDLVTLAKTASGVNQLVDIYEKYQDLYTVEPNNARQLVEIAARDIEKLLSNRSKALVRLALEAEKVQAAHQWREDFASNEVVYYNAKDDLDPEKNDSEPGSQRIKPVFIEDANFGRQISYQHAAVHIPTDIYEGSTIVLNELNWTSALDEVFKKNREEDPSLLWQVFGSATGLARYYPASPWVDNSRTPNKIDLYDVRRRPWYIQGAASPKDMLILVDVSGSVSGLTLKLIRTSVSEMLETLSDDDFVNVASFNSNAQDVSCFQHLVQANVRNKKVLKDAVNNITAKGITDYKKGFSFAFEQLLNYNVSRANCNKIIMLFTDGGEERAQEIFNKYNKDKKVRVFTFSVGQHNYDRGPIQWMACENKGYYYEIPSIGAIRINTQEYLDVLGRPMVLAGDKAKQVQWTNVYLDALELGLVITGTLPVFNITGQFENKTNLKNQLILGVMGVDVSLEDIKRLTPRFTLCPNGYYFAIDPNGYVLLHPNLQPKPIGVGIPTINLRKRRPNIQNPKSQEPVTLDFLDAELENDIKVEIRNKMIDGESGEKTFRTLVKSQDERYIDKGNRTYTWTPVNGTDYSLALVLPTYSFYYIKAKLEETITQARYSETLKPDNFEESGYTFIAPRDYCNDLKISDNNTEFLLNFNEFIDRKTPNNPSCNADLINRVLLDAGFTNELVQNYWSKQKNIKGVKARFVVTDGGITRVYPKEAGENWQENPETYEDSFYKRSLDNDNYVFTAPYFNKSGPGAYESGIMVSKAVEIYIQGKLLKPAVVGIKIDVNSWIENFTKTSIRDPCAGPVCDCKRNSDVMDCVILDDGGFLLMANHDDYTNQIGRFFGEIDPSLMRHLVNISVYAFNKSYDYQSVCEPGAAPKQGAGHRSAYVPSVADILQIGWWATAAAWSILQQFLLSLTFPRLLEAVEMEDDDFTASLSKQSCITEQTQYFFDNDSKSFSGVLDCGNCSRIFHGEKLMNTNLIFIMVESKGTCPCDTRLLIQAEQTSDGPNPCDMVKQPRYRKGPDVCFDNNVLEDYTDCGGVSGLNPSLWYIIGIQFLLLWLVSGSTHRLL

Known results for compounds:
INSERT INTO results (compound, tested_system, parameter_measured, reported_measurement) VALUES
  ('CNCCC(Oc1cccc2cnccc12)c1cncc(Cl)c1 (centres unmarked)', 'human α2δ-1 subunit of Cav2.2 calcium channel (Homo sapiens (Human), UniProt P54289)', 'Ki', '≥ 3000 nM'),
  ('CNCCC(Oc1cccc2ncccc12)c1cccc(C(F)(F)F)n1 (centres unmarked)', 'human α2δ-1 subunit of Cav2.2 calcium channel (Homo sapiens (Human), UniProt P54289)', 'Ki', '≥ 3000 nM'),
  ('CNCCC(Oc1cccc2ccncc12)c1ccsc1 (centres unmarked)', 'human α2δ-1 subunit of Cav2.2 calcium channel (Homo sapiens (Human), UniProt P54289)', 'Ki', '100 to 500 nM'),
  ('CNCC[C@@H](Oc1cccc2ccnc(C)c12)c1cccs1', 'human α2δ-1 subunit of Cav2.2 calcium channel (Homo sapiens (Human), UniProt P54289)', 'Ki', '< 100 nM');

Here's the next entry for you.
Query: Look up Ki for this compound: CNCCC(Oc1cccc2ncccc12)c1ccc(Cl)s1 (centres unmarked)
Result: 100 to 500 nM

* * *

target: human α2δ-1 subunit of Cav2.2 calcium channel (Homo sapiens (Human)); assay: Binding assay to human α2δ-1 subunit of Cav2.2 calcium channel ([3H]-Gabapentin); conditions: Table 1, human α2δ-1 enriched membranes, read-out: Ki (nM) alpha2delta Hum
Measured Ki values are reported for all entries that follow.

Known results for compounds:
INSERT INTO assay_data (compound, parameter_measured, reported_measurement) VALUES
  ('CNCC[C@H](Oc1cccc2ccncc12)c1cccs1 (stereo in doubt) [Example 12]', 'Ki', '100 to 500 nM'),
  ('CNCCC(Oc1cccc2ccncc12)c1ccncc1 (stereo not drawn)', 'Ki', '≥ 3000 nM'),
  ('CNCC[C@H](Oc1cccc2ccncc12)c1cccs1 [Example 10]', 'Ki', '≥ 3000 nM');

Query: What measured Ki is associated with CNCCC(Oc1cccc2ccncc12)c1sccc1F (stereo not drawn) on human α2δ-1 subunit of Cav2.2 calcium channel (Homo sapiens (Human))?
Result: 100 to 500 nM

Query: Consider next the compound CNCCC(Oc1cccc2cnccc12)c1ccc(C(F)(F)F)nc1 (stereo not drawn) in the same way.
Result: ≥ 3000 nM

Query: Consider next the compound CNCC[C@H](Oc1cccc2cnccc12)c1cccs1 in the same way.
Result: ≥ 3000 nM

Query: Consider next the compound CNCC[C@H](Oc1cccc2c(C)nccc12)c1cccs1 in the same way.
Result: ≥ 3000 nM

Query: Consider next the compound CNCC[C@H](Oc1cccc2ncccc12)c1ccsc1 in the same way.
Result: 100 to 500 nM

Query: Consider next the compound CNCCC(Oc1cccc2ncccc12)c1ccc(F)s1 (stereo not drawn) in the same way.
Result: < 100 nM

Query: Consider next the compound CNCCC(Oc1cccc2ncccc12)c1ncc(C)s1 (stereo not drawn) in the same way.
Result: 500 to 3000 nM

Query: Consider next the compound CNCC[C@H](Oc1cccc2cnccc12)c1ccsc1 in the same way.
Result: ≥ 3000 nM

Query: Consider next the compound CNCC[C@@H](Oc1cccc2ncccc12)c1sccc1F in the same way.
Result: 500 to 3000 nM

Query: Consider next the compound CNCC[C@H](Oc1cccc2ccnc(C)c12)c1cccs1 in the same way.
Result: ≥ 3000 nM

Query: Consider next the compound CNCC[C@@H](Oc1ccc2ncccc2c1)c1cccs1 in the same way.
Result: ≥ 3000 nM

Query: Consider next the compound CNCCC(Oc1cccc2ccncc12)c1cc(C(F)(F)F)ccn1 (stereo not drawn) in the same way.
Result: ≥ 3000 nM

Query: Consider next the compound CNCCC(Oc1cccc2cnccc12)c1cccs1 (stereo not drawn) in the same way.
Result: 100 to 500 nM

Query: Consider next the compound CNCCC(Oc1cccc2ccncc12)c1nccs1 (stereo not drawn) in the same way.
Result: ≥ 3000 nM

Query: Consider next the compound CNCC[C@@H](Oc1cccc2ncccc12)c1nccs1 in the same way.
Result: 500 to 3000 nM

Query: Consider next the compound CNCCC(Oc1cccc2c(C#N)nccc12)c1cccs1 (stereo not drawn) in the same way.
Result: 100 to 500 nM

Query: Consider next the compound CCNCCC(Oc1cccc2cnccc12)c1cccs1 (stereo not drawn) in the same way.
Result: < 100 nM

Query: Consider next the compound CCNCC[C@@H](Oc1cccc2ncccc12)c1cccs1 in the same way.
Result: 100 to 500 nM
